target: T1, biotinylated native human ApoC3 (human, UniProt P02656 21-99, biotinylated (site not stated)); assay: SPR, IgG1 over biotinylated ApoC3 on SA chip, pH 7.4
T1 construct: also called biotinylated human ApoC3
T1 sequence (P02656 21-99): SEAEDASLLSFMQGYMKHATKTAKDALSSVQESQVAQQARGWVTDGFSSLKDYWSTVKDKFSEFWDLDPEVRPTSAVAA
Record form. Attribute: koff. Fill in for each entry.
Numbers only here, please. The scale is s⁻¹.

For reference, reported koff for mAb14 (antibody, IgG1, V domains shown, Produced as full length IgG1 (kappa) in ExpiCHO-S cells; CDR graft into the closest human germline frameworks; also called humanized anti-ApoC3 antibody mAb14; variant 14) VH: QLLESGGGLVQPGGSLRLSCAASGFTFGTYSMRWVRQVPGKGLEWVSSIHTEGGGTAYRDSVKGRFTISRDNSKNTLYLQMNSLRAEDTAVYYCVIAGYSDWGQGTLVTVSS VL: DIVMTQSPLSLPVTPGEPASISCKTSQGLVHSDGKTYFYWYLQKPGQSPQLLIYQVSNRASGVPDRFSGSGSGTDFTLKISRVEAEDVGVYYCAHGTYYPHTFGQGTRLEIK stands at 0.000427

For reference, reported koff for mAb16 (antibody, IgG1, V domains shown, Produced as full length IgG1 (kappa) in ExpiCHO-S cells; also called humanized anti-ApoC3 antibody mAb16) VH: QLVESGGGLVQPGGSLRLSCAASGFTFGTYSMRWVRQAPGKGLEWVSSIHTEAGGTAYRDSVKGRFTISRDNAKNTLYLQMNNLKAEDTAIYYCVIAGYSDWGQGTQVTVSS VL: DIVMTQSPLSLPVTPGESASISCKTSQGLVHSGGKTYFYWFLQKPGQSPQQLIYQVSNRASGVPDRFTGSGSGTDFTLKISRVEAEDAGVYYCAHGTYYPHTFGSGTRLEIK stands at 0.000375
